Target: Renin (Rattus norvegicus)
Sequence (P08424 whole entry): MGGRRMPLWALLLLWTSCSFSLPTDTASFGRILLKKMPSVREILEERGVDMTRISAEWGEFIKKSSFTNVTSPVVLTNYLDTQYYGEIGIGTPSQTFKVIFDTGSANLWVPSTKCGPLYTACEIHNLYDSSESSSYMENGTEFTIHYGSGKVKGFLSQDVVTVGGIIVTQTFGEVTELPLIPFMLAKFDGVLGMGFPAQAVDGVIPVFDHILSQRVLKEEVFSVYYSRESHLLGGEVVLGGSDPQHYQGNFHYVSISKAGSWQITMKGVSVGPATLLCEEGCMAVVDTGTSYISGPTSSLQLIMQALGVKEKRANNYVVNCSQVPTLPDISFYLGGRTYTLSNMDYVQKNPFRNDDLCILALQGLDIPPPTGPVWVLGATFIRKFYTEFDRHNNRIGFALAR
Test: Inhibitory activity against rat plasma renin in vitro.
*1 amine or outer side, *2 acyl side, *3 side chain or, on linkers, in order; H or OH if unused. Where a SMILES comes first, the peptide text is derived from it. [ ]: non-standard residue; d: D form. Ahppa(3S,4S) = O=C(C[C@H](O)[C@H](Cc1ccccc1)N[*:1])[*:2]; Sta = CC(C)C[C@H](N)[C@@H](O)CC(=O)O; Cha = N[C@@H](CC1CCCCC1)C(=O)O
Parameter IC50: see the listing below.

Molecule: CC(=O)N[C@@H](Cc1c[nH]cn1)C(=O)N1CCC[C@H]1C(=O)N[C@@H](Cc1ccccc1)C(=O)N[C@@H](Cc1c[nH]cn1)C(=O)N[C@@H](CC(C)C)[C@@H](O)CC(=O)N[C@@H](CC1CCCCC1)C(=O)N[C@@H](Cc1ccccc1)C(N)=O (Ac-HPFH[Sta][Cha]F-NH2)
Measured On: Renin (Rattus norvegicus)
IC50 [µM]: 2.7

Molecule: CC(C)C[C@H](NC(=O)[C@H](Cc1c[nH]cn1)NC(=O)[C@H](Cc1ccccc1)NC(=O)[C@@H]1CCCN1C(=O)[C@H](Cc1c[nH]cn1)NC(=O)[C@@H]1CCCN1)[C@@H](O)CC(=O)N[C@H](C(=O)N[C@H](C(N)=O)[C@@H](C)O)[C@@H](C)O (H-PHPFH[Sta]TT-NH2)
Measured On: Renin (Rattus norvegicus)
IC50 [µM]: 105

Molecule: CC[C@H](C)[C@H](NC(=O)[C@H](Cc1ccccc1)NC(=O)[C@@H]1CCCN1C(=O)[C@H](Cc1cnc[nH]1)NC(C)=O)C(=O)N[C@@H](Cc1ccccc1)[C@@H](O)CC(=O)N[C@@H](CC(C)C)C(=O)N[C@@H](Cc1ccccc1)C(N)=O (Ac-HPFI[Ahppa(3S,4S)]LF-NH2)
Measured On: Renin (Rattus norvegicus)
IC50 [µM]: 1.27

Molecule: CC(=O)N[C@@H](Cc1cnc[nH]1)C(=O)N1CCC[C@H]1C(=O)N[C@@H](Cc1ccccc1)C(=O)N[C@H](C(=O)N[C@@H](CC1CCCCC1)[C@@H](O)CC(=O)N[C@@H](CC(C)C)C(=O)N[C@@H](Cc1ccccc1)C(N)=O)C(C)C
Measured On: Renin (Rattus norvegicus)
IC50 [µM]: 0.033

Molecule: CC(C)C[C@H](NC(=O)C[C@H](O)[C@H](CC(C)C)NC(=O)[C@H](Cc1c[nH]cn1)NC(=O)[C@H](Cc1ccccc1)NC(=O)[C@@H]1CCCN1C(=O)[C@H](Cc1c[nH]cn1)NC(=O)[C@@H]1CCCN1)C(=O)N[C@@H](Cc1ccc(O)cc1)C(=O)N[C@@H](Cc1ccc(O)cc1)C(N)=O (H-PHPFH[Sta]LYY-NH2)
Measured On: Renin (Rattus norvegicus)
IC50 [µM]: 0.775

Molecule: CC(C)C[C@H](NC(=O)[C@H](Cc1cnc[nH]1)NC(=O)[C@H](Cc1ccccc1)NC(=O)[C@@H]1CCCN1C(=O)[C@H](Cc1cnc[nH]1)NC(=O)[C@@H]1CCCN1)[C@@H](O)CC(=O)N[C@@H](Cc1ccc(O)cc1)C(=O)N[C@@H](Cc1ccc(O)cc1)C(N)=O (H-PHPFH[Sta]YY-NH2)
Measured On: Renin (Rattus norvegicus)
IC50 [µM]: 1.6
